# STUDY_TARGET: T1, HSP70 (human HSP70; the antigen of the binning, humanization and variant binding assays) (human, UniProt P0DMV8 1-641, limits assumed)
# T1 construct: also called hu HSP70
# T1 sequence (P0DMV8 whole entry, change not shown): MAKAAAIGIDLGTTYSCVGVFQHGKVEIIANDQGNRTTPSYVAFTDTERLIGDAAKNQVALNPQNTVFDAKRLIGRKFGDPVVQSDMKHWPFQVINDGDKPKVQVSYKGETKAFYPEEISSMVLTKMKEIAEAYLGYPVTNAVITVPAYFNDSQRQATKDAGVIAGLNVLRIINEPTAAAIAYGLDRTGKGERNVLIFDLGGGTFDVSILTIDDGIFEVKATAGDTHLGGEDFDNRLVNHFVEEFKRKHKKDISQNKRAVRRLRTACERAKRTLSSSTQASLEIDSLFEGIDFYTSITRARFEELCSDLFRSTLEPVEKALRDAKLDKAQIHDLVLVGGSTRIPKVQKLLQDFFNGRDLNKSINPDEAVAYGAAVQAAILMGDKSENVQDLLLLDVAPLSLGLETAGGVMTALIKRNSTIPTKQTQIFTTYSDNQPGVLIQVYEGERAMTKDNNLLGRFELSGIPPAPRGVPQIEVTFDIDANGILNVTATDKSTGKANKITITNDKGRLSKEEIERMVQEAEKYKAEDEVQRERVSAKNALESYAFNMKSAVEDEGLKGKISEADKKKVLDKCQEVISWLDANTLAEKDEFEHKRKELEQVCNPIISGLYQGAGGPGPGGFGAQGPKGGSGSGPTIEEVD
# MEASUREMENT_NOTES: BLI, anti-human Fc capture, antigen 100 nM
MEASUREMENT_LABEL: % Diss (%)
Provide the reading as a plain figure in %.

Consider the following illustrative entries.
{"BINDER": "h77A-1.35 (antibody, V domains shown, captured by anti-human Fc) VH: QIQLVQSGTEVKKPGASVKVSCKASGYTFTNYGMNWVRQAPGQGLEWMGWINTYTGEPTYADDFKGRFTFTTDTSTSTAYMELRSLRSDDTAVYFCARYDHHMDYWGQGTLVTVSS VL: EIVLTQSPDSLTVSLGERATINCKSSQSLLNSGTRKNYLAWYQQKAGQSPKLLIYWTSTRESGVPDRFSGSGSGTDFTLTIDSLQAEDVAVYYCKQSYTLYTFGGGTKVEIK", "% Diss, %": 4.38}
{"BINDER": "h77A-1.64 (antibody, V domains shown, captured by anti-human Fc) VH: QIQLVQSGAEVKKPGASVKVSCKASGYTFTNYGMNWVRQAPGQGLEWMGWINTYTGESTYADDFKGRFTFTTDTSTSTAYMELRSLRSDDTAVYFCARYDHAMDYWGQGTLVTVSS VL: EIVLTQSPDSLAVSLGERATINCKSSQSLLNSGTRKNYLAWYQKKAGQSPKLLIYWTSTRESGVPDRFSGSGSGTDFTLSIDSLQAEDVAIYYCKQSYTLYTFGGGTKVEIK", "% Diss, %": 21}

Now turn to the next binder.
Request: Quick check: % Diss of h77A-1.5 (antibody, V domains shown, captured by anti-human Fc) VH: QIQLVQSGAEVKKPGASVKVSCKASGYTFTNYGMNWVRQAPGQGLEWMGWINTYTGEPTYADDFKGRFTFTTDTSTSTAYMELRSLRSDDTAVYFCARYDHAMDYWGQGTLVTVSS VL: EIVLTQSPDSLAVSLGERATINCKSSQSLLNSGTRKNYLAWYQQKAGQSPKLLIYWTSTRESGVPDRFSGSGSGTDFTLTIDSLQAEDVAVYYCKQSYNLYTFGGGTKVEIK ?
Result: 25.3
